Biological target: PBRM1-BD2 (Homo sapiens (Human), UniProt Q86U86)
Sequence (Q86U86 177-287): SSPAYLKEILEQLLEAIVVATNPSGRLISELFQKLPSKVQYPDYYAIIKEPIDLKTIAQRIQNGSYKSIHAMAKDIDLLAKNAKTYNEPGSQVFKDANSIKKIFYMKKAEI
Conditions: read-out: Kd PBRM1-BD2; ITC; NB = did not bind (heat below 0.1 μcal per second)
pKd: −log10 of the molar value.
metric_name: pKd

                                   molecule                                 tested_on  metric_name  experimental_result
0  O=C1NC(c2c(F)cccc2Cl)Nc2ccccc21 (stereo not shown)  PBRM1-BD2 (Homo sapiens (Human), UniProt Q86U86)          pKd                 4.74

----------
Target: PBRM1-BD5 (Homo sapiens (Human), UniProt Q86U86)
Sequence (Q86U86 653-763): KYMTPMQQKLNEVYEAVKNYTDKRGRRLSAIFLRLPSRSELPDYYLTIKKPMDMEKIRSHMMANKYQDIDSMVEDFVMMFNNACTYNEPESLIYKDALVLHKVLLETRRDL
pKd: −log10 of the molar value.
metric_name: pKd

In [3]: df
Out[3]:
                                   compound  experimental_result
0  O=C1NC(c2c(F)cccc2Cl)Nc2ccccc21 (stereo not shown) [Compound 5]                 3.75

----------
Each item that follows carries a reported SMARCA2 ΔTm.
Molecular target: SMARCA2 (Homo sapiens (Human))
Sequence (P51531 1378-1506): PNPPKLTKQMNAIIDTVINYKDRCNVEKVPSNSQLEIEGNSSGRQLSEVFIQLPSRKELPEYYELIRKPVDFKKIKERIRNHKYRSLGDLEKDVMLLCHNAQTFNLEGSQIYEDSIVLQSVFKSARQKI
Test: DSF selectivity profiling
Type: binding
metric_name: SMARCA2 ΔTm (°C)

>>> print(df.to_string())
                                   compound  metric_name  experimental_result
0  CN(C)/C=C1\CCn2c1nc(=O)c1c(Cl)cccc12 [Compound 2, reference compound]  SMARCA2 ΔTm                  2.2
1  Cc1cccc(C2NC(=O)c3c(Cl)cccc3N2)c1C (centres unmarked)  SMARCA2 ΔTm                  0.0
2  CCC(/C=C1\CCn2c1nc(=O)c1c(Cl)cccc12)CC [Compound 7, reference compound]  SMARCA2 ΔTm                  3.0
3  Cc1cccc(C)c1C1NC(=O)c2c(Cl)cccc2N1 (centres unmarked)  SMARCA2 ΔTm                  0.5
4  Cc1cccc(C2NC(=O)c3c(Br)cccc3N2)c1 (centres unmarked)  SMARCA2 ΔTm                  0.3

----------
Target: BRD3-BD2 (Homo sapiens (Human))
Sequence (Q15059 306-415): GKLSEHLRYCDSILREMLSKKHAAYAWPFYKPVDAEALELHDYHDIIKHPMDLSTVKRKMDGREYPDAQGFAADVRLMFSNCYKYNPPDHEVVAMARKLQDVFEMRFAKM
Assay: DSF selectivity profiling
Type: binding
metric_name: BRD3-BD2 ΔTm (°C)

>>> print(df.to_string())
                                   molecule  experimental_result
0  Cc1ccccc1C1NC(=O)c2c(Cl)cccc2N1 (stereo not drawn) [Compound 15]                  0.4
1  Cc1cccc(C2NC(=O)c3c(Br)cccc3N2)c1 (stereo not drawn) [Compound 34]                  0.5
2  CCC(/C=C1\CCn2c1nc(=O)c1c(Cl)cccc12)CC [Compound 7, reference compound]                  0.4
3  Cc1cccc(C2NC(=O)c3c(Cl)cccc3N2)c1C (stereo not drawn) [Compound 25]                  0.4
4  Cc1cccc(C)c1C1NC(=O)c2c(Cl)cccc2N1 (stereo not drawn) [Compound 26]                  0.3
5  CN(C)/C=C1\CCn2c1nc(=O)c1c(Cl)cccc12 [Compound 2, reference compound]                  0.5

----------
Reported TRIM33A ΔTm by item:
Target: TRIM33A (Homo sapiens (Human), UniProt Q9UPN9)
Sequence (Q9UPN9 957-1080): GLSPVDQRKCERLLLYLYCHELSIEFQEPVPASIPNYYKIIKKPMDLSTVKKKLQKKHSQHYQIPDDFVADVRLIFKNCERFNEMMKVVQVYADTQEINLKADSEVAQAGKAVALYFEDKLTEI
Test: DSF selectivity profiling
Type: binding
metric_name: TRIM33A ΔTm

In [3]: df
Out[3]:
                                   compound  experimental_result
0  Cc1ccccc1C1NC(=O)c2c(Cl)cccc2N1 (stereo not drawn) [Compound 15]               0.8 °C
1  CN(C)/C=C1\CCn2c1nc(=O)c1c(Cl)cccc12 [Compound 2, reference compound]              −0.9 °C
2  Cc1cccc(C2NC(=O)c3c(Br)cccc3N2)c1 (stereo not drawn) [Compound 34]               0.1 °C
3  CCC(/C=C1\CCn2c1nc(=O)c1c(Cl)cccc12)CC [Compound 7, reference compound]               0.3 °C
4  Cc1cccc(C)c1C1NC(=O)c2c(Cl)cccc2N1 (stereo not drawn) [Compound 26]               0.5 °C
5  Cc1cccc(C2NC(=O)c3c(Cl)cccc3N2)c1C (stereo not drawn) [Compound 25]               0.3 °C

----------
Molecular target: PBRM1-BD2 (Homo sapiens (Human), UniProt Q86U86)
Assay: biochemical
Assay type: binding
Settings: read-out: PBRM1-BD2 ΔTm, DSF, 10 μM protein, 100 μM inhibitor, vs apoprotein
metric_name: ΔTm at 100 µM (°C)

>>> df
                                   compound  readout_qualifier  experimental_result
0     O=C(O)c1ccc(Cl)c2c(=O)c3ccccc3[nH]c12                  =                    0
1  O=C1NC(c2c(F)cccc2Cl)Nc2cccc(Cl)c21 (stereo not shown)                  =                  4.4
2  Cc1cccc(C2NC(=O)c3c(Br)cccc3N2)c1 (stereo not shown)                  >                  6.2
3  CCC(/C=C1\CCn2c1nc(=O)c1c(Cl)cccc12)CC [Compound 7, reference compound]                  =                  7.7
4  O=C1NC(c2c(F)cccc2Cl)Nc2ccccc21 (stereo not shown)                  =                    1
5  COc1cccc2c1C(=O)NC(c1ccccc1C)N2 (stereo not shown)                  =                    0
6  CN(C)/C=C1\CCn2c1nc(=O)c1c(Cl)cccc12 [Compound 2, reference compound]                  =                  3.3

----------
Recorded CREBBP ΔTm for the following molecules
Biological target: CREBBP (Homo sapiens (Human), UniProt Q92793)
Sequence (Q92793 1085-1192): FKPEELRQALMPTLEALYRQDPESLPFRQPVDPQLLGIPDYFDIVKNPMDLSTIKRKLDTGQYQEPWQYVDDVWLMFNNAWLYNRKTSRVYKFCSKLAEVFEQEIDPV
Test: DSF selectivity profiling
Type: binding
metric_name: CREBBP ΔTm (°C)

In [3]: df
Out[3]:
                                   molecule                                 tested_on  experimental_result
0  CCC(/C=C1\CCn2c1nc(=O)c1c(Cl)cccc12)CC [Compound 7, reference compound]  CREBBP (Homo sapiens (Human), UniProt Q92793)                 −0.7
1  CN(C)/C=C1\CCn2c1nc(=O)c1c(Cl)cccc12 [Compound 2, reference compound]  CREBBP (Homo sapiens (Human), UniProt Q92793)                  0.1
2  Cc1cccc(C2NC(=O)c3c(Cl)cccc3N2)c1C (stereo not drawn)  CREBBP (Homo sapiens (Human), UniProt Q92793)                  0.6
3  Cc1cccc(C)c1C1NC(=O)c2c(Cl)cccc2N1 (stereo not drawn)  CREBBP (Homo sapiens (Human), UniProt Q92793)                  0.2
4  Cc1ccccc1C1NC(=O)c2c(Cl)cccc2N1 (stereo not drawn)  CREBBP (Homo sapiens (Human), UniProt Q92793)                  0.5
5  Cc1cccc(C2NC(=O)c3c(Br)cccc3N2)c1 (stereo not drawn)  CREBBP (Homo sapiens (Human), UniProt Q92793)                 −0.2

----------
Target: BRD4-BD2 (Homo sapiens (Human), UniProt O60885)
Test: DSF selectivity profiling
Format: binding
metric_name: BRD4-BD2 ΔTm (°C)

>>> df
                                   compound  experimental_result
0  Cc1ccccc1C1NC(=O)c2c(Cl)cccc2N1 (stereo not drawn)                 −3.3
1  CN(C)/C=C1\CCn2c1nc(=O)c1c(Cl)cccc12 [Compound 2, reference compound]                 −0.6
2  Cc1cccc(C2NC(=O)c3c(Cl)cccc3N2)c1C (stereo not drawn)                 −4.2
3  Cc1cccc(C2NC(=O)c3c(Br)cccc3N2)c1 (stereo not drawn)                 −1.1
4  CCC(/C=C1\CCn2c1nc(=O)c1c(Cl)cccc12)CC [Compound 7, reference compound]                 −1.1
5  Cc1cccc(C)c1C1NC(=O)c2c(Cl)cccc2N1 (stereo not drawn)                 −4.4

----------
BRD7 ΔTm by entry:
Biological target: BRD7 (Homo sapiens (Human))
Sequence (Q9NPI1 131-235): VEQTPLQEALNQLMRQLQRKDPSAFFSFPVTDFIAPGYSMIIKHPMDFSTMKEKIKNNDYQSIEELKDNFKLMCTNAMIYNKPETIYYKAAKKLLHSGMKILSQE
Experiment: DSF selectivity profiling
Format: binding
metric_name: BRD7 ΔTm (°C)

>>> print(df.to_string())
                                   compound  experimental_result
0  Cc1cccc(C)c1C1NC(=O)c2c(Cl)cccc2N1 (stereo not drawn) [Compound 26]                  0.1
1  CCC(/C=C1\CCn2c1nc(=O)c1c(Cl)cccc12)CC [Compound 7, reference compound]                  0.4
2  CN(C)/C=C1\CCn2c1nc(=O)c1c(Cl)cccc12 [Compound 2, reference compound]                  1.2
3  Cc1ccccc1C1NC(=O)c2c(Cl)cccc2N1 (stereo not drawn) [Compound 15]                  0.2
4  Cc1cccc(C2NC(=O)c3c(Br)cccc3N2)c1 (stereo not drawn) [Compound 34]                 −0.4
5  Cc1cccc(C2NC(=O)c3c(Cl)cccc3N2)c1C (stereo not drawn) [Compound 25]                  0.0
